Reported pIC50 values for a set of compounds
Tested on: triple negative breast cancer cell line MDA-MB-231
Test: XTT cell survival assay and combination index analysis, MDA-MB-231
Format: cell-based
Settings: Homo sapiens, XTT assay, monotherapy, increasing concentrations for 4 to 7 days, dose at which 50% of the cells are viable, read-out: IC50
Units for pIC50: none; it is -log10 of a concentration expressed in mol/L.

chem_smiles=Nc1ccccc1NC(=O)c1ccc(CNC(=O)OCc2cccnc2)cc1 assay_system="triple negative breast cancer cell line MDA-MB-231" observed_measurement=7.00

Could you now consider this next compound?
## Task Read the entry `O=C(/C=C/c1cccc(S(=O)(=O)Nc2ccccc2)c1)NO` and write its reported pIC50.
## Result 6.60

---

System: histiocytic lymphoma cell line U937
Assay: XTT cell survival assay and combination index analysis, U937
Format: cell-based
Settings: Homo sapiens, U-937
Experimental endpoint: IC50 (nM)
Please respond with the number in nM and leave the unit unwritten.

## Task Please look at `C/C=C1\NC(=O)[C@H]2CSSCC/C=C/[C@H](CC(=O)N[C@H](C(C)C)C(=O)N2)OC(=O)[C@H](C(C)C)NC1=O` and tell me its recorded IC50 on histiocytic lymphoma cell line U937.
## Result 1

---

Test system: non-tumor mammary cell line MCF-10A
Assay: XTT cell survival assay, non-tumor cells MCF-10A
Settings: same drug doses as MDA-MB-231, 7 days after treatment, result in words
Experimental endpoint: cell survival of non-tumor cells (sensitivity)

compound=C/C=C1\NC(=O)[C@H]2CSSCC/C=C/[C@H](CC(=O)N[C@H](C(C)C)C(=O)N2)OC(=O)[C@H](C(C)C)NC1=O assay_system="non-tumor mammary cell line MCF-10A" observed_measurement="showed a sensitivity"
compound=Nc1ccccc1NC(=O)c1ccc(CNC(=O)OCc2cccnc2)cc1 assay_system="non-tumor mammary cell line MCF-10A" observed_measurement=insensitive
compound=O=C(/C=C/c1cccc(S(=O)(=O)Nc2ccccc2)c1)NO assay_system="non-tumor mammary cell line MCF-10A" observed_measurement=insensitive
compound="O=C(CCCCCCC(=O)Nc1ccccc1)NO [Vorinostat, N-hydroxy-N'-phenyloctanediamide]" assay_system="non-tumor mammary cell line MCF-10A" observed_measurement="showed a sensitivity"

Origin of measurements: patent EP3461488A1
